Test system: MDA-MB-231
TEST_SUMMARY: NCI tumour cell line growth inhibition, 48 h
Calls of active or inactive are those of the source. No stated cut-off is given here; in the data, active = GI50 up to about 1.1 µM and inactive = higher.
EXPERIMENTAL_ENDPOINT: GI50

Asked: Kindly state the measured GI50 obtained for CCCCN1CN2C(=O)C(C(=O)OCC)C(=O)c3sc4nc(SC)nc1c4c32 (stereo unspecified) with MDA-MB-231.
Given back: 17.9 µM (inactive)

Asked: Kindly state the measured GI50 obtained for c1ccc2c(c1)OC(N1CCCC1)c1cnc(N3CCCC3)nc1-2 (stereo unspecified) with MDA-MB-231.
Given back: 41.8 µM (inactive)

Asked: Kindly state the measured GI50 obtained for N/N=C(\c1nc2ccc([N+](=O)[O-])cc2nc1O)C(O)c1ccc(Cl)c(Cl)c1 (stereo unspecified) with MDA-MB-231.
Given back: > 100 µM (inactive)

Asked: Kindly state the measured GI50 obtained for CS(=O)(=O)OC1CN2CCC1CC2 (stereo unspecified) with MDA-MB-231.
Given back: > 100 µM (inactive)

Asked: Kindly state the measured GI50 obtained for [N-]=[N+]=C(C(=O)OCC#CCOC(=O)C(=[N+]=[N-])S(=O)(=O)c1ccccc1)S(=O)(=O)c1ccccc1 with MDA-MB-231.
Given back: > 10 µM (inactive)

Asked: Kindly state the measured GI50 obtained for O=c1c(-c2ccccc2Cl)coc2cc(F)ccc12 with MDA-MB-231.
Given back: 19.4 µM (inactive)

Asked: Kindly state the measured GI50 obtained for COc1cc2c(c(OC)c1OC)C(=O)[C@H]1OC(=O)N[C@@H]21 with MDA-MB-231.
Given back: > 100 µM (inactive)

Asked: Kindly state the measured GI50 obtained for COc1cc(C(c2cc3c(cc2O)OCO3)N2CCCCC2)cc(OC)c1OC (stereo unspecified) with MDA-MB-231.
Given back: 15 µM (inactive)

Asked: Kindly state the measured GI50 obtained for COC1(CC[C@@H](C)COC2OC(CO)C(O)C(O)C2O)O[C@H]2C[C@H]3[C@@H]4CC=C5C[C@@H](OC6OC(CO)C(OC7OC(C)C(O)C(O)C7O)C(O)C6OC6OC(C)C(O)C(O)C6O)CC[C@]5(C)[C@H]4CC[C@]3(C)[C@H]2[C@@H]1C (stereo partly specified) with MDA-MB-231.
Given back: 1.6 µM (inactive)

Asked: Kindly state the measured GI50 obtained for O=C1C=CC(=O)c2c1ccc1c3ccccc3n(Cc3ccc([N+](=O)[O-])cc3)c21 with MDA-MB-231.
Given back: > 100 µM (inactive)

Asked: Kindly state the measured GI50 obtained for CN(C)C1(N(C)C)Oc2c(c(=O)n(C)c(=O)n2C)C(c2ccc(Br)cc2)C1(F)F (stereo unspecified) with MDA-MB-231.
Given back: > 100 µM (inactive)
